# Test system: SNB-19
# experimental_details: NCI tumour cell line growth inhibition, 48 h
Active and inactive are the calls of the source. No stated cut-off is given here; in the data, active = GI50 up to about 1.1 µM and inactive = higher. Where a SMILES comes first, the peptide text is derived from it. The star is where a group is joined. Cbz = O=C(OCc1ccccc1)*
Outcome codes: class 1 = active, class 0 = inactive

compound	label_value
COc1cc(-c2oc3c(OC)cc(OC)c(O)c3c(=O)c2OC)cc(OC)c1OC	class 0
NCCNC(=O)c1cccc2cc3ccccc3nc12	class 0
CCOC(=O)C(CC(=O)OC)NC(=O)C(CC(=O)OC)NC(=O)C(CC(=O)OC)NC(=O)C(CC(=O)OC)NC(=O)OCc1ccccc1 (stereo unspecified) (Cbz-D(OMe)D(OMe)D(OMe)D(OMe)-OEt; configuration not given here)	class 0
CCCCCCCCCCCCCCCCCC(=O)NCC(COP(=O)([O-])OCC[N+](C)(C)C)OCC (stereo unspecified)	class 1
N#C/C(=C\c1ccc(O)c(O)c1)C(=O)NC1CCC(CC2CCC(NC(=O)/C(C#N)=C/c3ccc(O)c(O)c3)CC2)CC1 (stereo unspecified)	class 0
COc1ccc(/C=N/n2c(C)n[nH]c2=O)c(OC)c1	class 0
CCN(CC)CCCNc1c2c(Cl)cc(Cl)cc2nc2nc(O)nc(C)c12	class 0
Cc1cc(OP2(=O)NCc3ccncc3O2)ccc1Cl (stereo unspecified)	class 0
COc1ccc(OC)c(/C=C/NC=O)c1	class 0
COC(=O)C(C)Oc1ccc(O)cc1 (stereo unspecified)	class 0
CC(C)Cc1ccc(C(C)/C=C2\CCC(CN(C)C)C2=O)cc1 (stereo unspecified)	class 0
O=C1N=NC(=O)N1c1cc(C(F)(F)F)cc(C(F)(F)F)c1	class 0
CN(C)CC1CCCC1=O (stereo unspecified)	class 0
CC12CCC(C(Nc3cc(C(F)(F)F)cc(C(F)(F)F)c3)C1=O)C2(C)C (stereo unspecified)	class 0
Nc1nc(Cl)cc(OCC2(CO)CCCCC2)n1	class 0
O=C(Nc1ccc2[nH]c(C(=O)N3CC(CCl)c4ccc([N+](=O)[O-])cc43)cc2c1)c1cc2ccccc2o1 (stereo unspecified)	class 0
O=C1CCC2COc3ccc(O)c1c32 (stereo unspecified)	class 0
BrP(NC1CCCCCC1)(c1ccccc1)(c1ccccc1)c1ccccc1	class 0
CC1OC(OCC2OC(Oc3c(-c4ccc(O)cc4)oc4cc(O)cc(O)c4c3=O)C(OC3OCC(O)(CO)C3O)C(O)C2O)C(O)C(O)C1O (stereo unspecified)	class 0
COC(=O)C1(C(=O)OC)N=C(C)OC1c1ccccc1O (stereo unspecified)	class 0
C/C(=N\NC(=O)c1cccnc1)c1cccc(/C(C)=N/NC(=O)c2cccnc2)n1	class 0

---

Each entry below carries its measured GI50, system: HCT-15.
observed_property: GI50

                                    molecule  value_measured
 0  CC(C)COC(=O)c1ccc(/N=C\c2ccc(/C=N/c3ccc(C(=O)OCC(C)C)cc3)cc2)cc1        > 100 µM
 1  CC(=O)[C@@]1(c2ccccc2)CC2(CCN(C)CC2)O[C@H]1C        > 100 µM
 2  O=C1C2c3[nH]c4ccccc4c3C3CCCC3C2C(=O)N1c1ccccc1 (stereo unspecified)           78 µM
 3          O=C(CCc1ccccc1)On1nnc2ccccc2c1=O        > 100 µM
 4                 C=Cc1cnc([N+](=O)[O-])n1C         50.2 µM
 5  CCOC(=O)c1cn2c(n1)sc1cc([N+](=O)[O-])ccc12        > 100 µM
 6     COc1ccc(/N=C\c2cc(OC)c(OC)c(OC)c2)cc1         29.2 µM
 7  O=C(O)C1(Cc2ccc3c(c2)CCC3)Cc2cc3c(cc2C1)CCC3        > 100 µM
 8                 O=C1N(C2CCCCC2)CC12CCCCC2        > 100 µM
 9  Cc1nc2ccc(S(=O)(=O)Nc3nccs3)cc2c(=O)n1NS(=O)(=O)c1nccs1        > 100 µM
10  COC(=O)c1ccc(NC(=O)c2cc(OC)c(OC)c(OC)c2)cc1         1.08 µM

---

# Tested on: DMS-273
# experimental_details: NCI tumour cell line growth inhibition, 48 h
The source made the active and inactive calls. Cut-off read from the data, not from the text of the source: active = GI50 up to about 1.1 µM and inactive = higher.
Outcome codes: active, inactive

                                   molecule  study_target  label_value
0  O=C(CC1=Nc2nnc(-c3nnc4n3C(=O)C(CC(=O)C3CC3)=N4)n2C1=O)C1CC1       DMS-273     inactive
1  Nc1nc(Cl)cc(NCCCCCCCCCCNc2cc(Cl)nc(N)n2)n1       DMS-273     inactive
2  N#C/C(=C\c1ccc(O)c(O)c1)C(=O)NC1CCC(CC2CCC(NC(=O)/C(C#N)=C/c3ccc(O)c(O)c3)CC2)CC1 (stereo not given)       DMS-273       active
3        C1CN2N3CCCC23C1 (stereo not given)       DMS-273     inactive
4           O=C1Cc2ccccc2N1/N=C\c1ccc(O)cc1       DMS-273     inactive

---

# Test system: K562
# experimental_details: NCI tumour cell line growth inhibition, 48 h
Active and inactive are the calls of the source. Rule as the data show it: active = GI50 up to about 1.1 µM and inactive = higher.
Outcome codes: YES for active, NO for inactive

molecule	label_value
COc1ccc(C(=O)c2cc(OC)c(OC)c(OC)c2)cc1OC	NO
COC[n+]1cc2cc(OC)c(OC)cc2c2ccc3cc(OC)c(OC)cc3c21	NO
C/C=C/C1=C(Cl)C(=O)[C@@H](Cl)[C@@]1(O)C(=O)OC [(+)-CRYPTOSPORIPSIN]	YES
COc1cc(NCCC(=O)O)c2ncccc2c1	NO
O=C1C=Cc2noc3cccc1c23	NO
CC(C)(O)C1CC[C@]2(C)CC[C@]3(C)[C@H](CC[C@@H]4[C@@]5(C)CC[C@H](O)C(C)(C)[C@@H]5CC[C@]43C)[C@@H]12 (some centres not stated)	NO
CCCCCCCCCCC(O)CCCCCCC(=O)O (configuration not stated)	NO
CC(C)=Cc1cc(C(=O)Nc2ccc(Cl)c(Cl)c2)nc(N)n1	NO
Cc1nc2n(c1/C=C1/C(=O)Nc3cccc(Cl)c31)CCS2	NO
CCOC(=O)c1cn2c(n1)sc1cc([N+](=O)[O-])ccc12	NO
CSc1c(C#N)c(O)n(-c2ccc(C)cc2)c(=O)c1C(C)=O	NO
C=C(C)C(=O)OC1C[C@H](COC(C)=O)C2CC=C(CO)C2C2OC(=O)C(=C)[C@H]12 (some centres not stated)	NO
COc1cc(/C=C(\NC(=O)c2ccccc2)c2nc3cncnc3[nH]2)cc(OC)c1OC	NO
Cc1ccc(N2Cc3c(ccc4ccccc34)OP2(=O)Oc2ccc(Cl)c(C)c2)cc1 (configuration not stated)	NO
CNc1nc(C(N)=O)c(N)s1	NO
Cc1ccc(S(=O)(=O)N/N=C2\C=C[C@]3(CC2)C(=O)N(C)c2ccccc23)cc1	NO
O=C1CCC2COc3ccc(O)c1c32 (configuration not stated)	NO
C(=C/c1nc2ccccc2o1)/c1ccc2c(c1)OCO2	NO
O=C1N(C2CCCCC2)CC12CCCCC2	NO
CCCCc1c2cnccc2c(CCCC)c2c1[nH]c1ccccc12	NO
CCOC(=O)C(=O)C=P(c1ccccc1)(c1ccccc1)c1ccccc1	NO
COc1ccc(OC)c2c(Nc3ccc(S(=O)(=O)O)c4cc(S(=O)(=O)O)cc(S(=O)(=O)O)c34)cc(C)nc12	NO

---

# Tested on: Malme-3M
# experimental_details: NCI tumour cell line growth inhibition, 48 h
Active and inactive are the calls of the source. Cut-off read from the data, not from the text of the source: active = GI50 up to about 1.1 µM and inactive = higher.
observed_property: GI50

                                    compound  observed_property       value_measured
 0        C1CN2N3CCCC23C1 (stereo not drawn)               GI50  > 100 µM (inactive)
 1  O=C(O)CC(Cc1ccccc1Cl)C(=O)O (stereo not drawn)               GI50  > 100 µM (inactive)
 2  S=P1(N2CCCCC2)Oc2ccc3ccccc3c2-c2c(ccc3ccccc23)O1               GI50   > 46 µM (inactive)
 3  C[C@]12CC[C@H](OC3CCCCO3)CC1=CC[C@@H]1C2CC[C@]2(C)/C(=N/OCCC#N)CCC12 (stereo partly drawn)               GI50  > 100 µM (inactive)
 4          O=C(NNS(=O)(=O)c1ccccc1)c1cccnc1               GI50  > 100 µM (inactive)
 5  CC(=O)OCC(=O)[C@@]1(O)CC[C@H]2[C@@H]3C[C@H](C)C4=CC(=O)C=C[C@]4(C)[C@@]3(F)[C@@H](O)C[C@@]21C               GI50  > 100 µM (inactive)
 6  CCOc1cc2c(cc1O)CC[C@@H]1[C@@H]2CC[C@]2(C)C(N)CC[C@@H]12 (stereo partly drawn)               GI50   11.8 µM (inactive)
 7  CS(=O)(=O)OCC1CN(S(C)(=O)=O)c2cc(O)ccc21 (stereo not drawn)               GI50   2.02 µM (inactive)
 8  CC(C)=Cc1cc(C(=O)Nc2ccc(Cl)c(Cl)c2)nc(N)n1               GI50  > 100 µM (inactive)
 9  CC12CCC(C(Nc3cc(C(F)(F)F)cc(C(F)(F)F)c3)C1=O)C2(C)C (stereo not drawn)               GI50  > 100 µM (inactive)
10  CCOc1ccc(-c2oc(/C=N/NS(=O)(=O)c3ccc(C)cc3)c([N+](=O)[O-])c2-c2ccc(OCC)cc2)cc1               GI50   19.1 µM (inactive)
11  Cn1c(-c2cccc([N+](=O)[O-])c2)[n+](C)c2ccccc21               GI50   89.3 µM (inactive)
12  COc1cc(C2C(C(=O)NCc3ccccc3)=C(C)NC(C)=C2C(=O)NCc2ccccc2)ccc1O               GI50  > 100 µM (inactive)
